Give insulin secretion stimulation for every item shown.
# PROTOCOL SUMMARY: stimulators of insulin release from INS-1E, primary screen, cell-based, 5 mM glucose, NPC library (AID 1117329); also: reference of the scale not given here
# MEASUREMENT PARAMETERS: rat INS-1E insulin secretion, at 10 µM, stronger effect = higher value
Answers are plain numbers, in %.

Provide reported insulin secretion stimulation for each item, in the same order as listed.
1. O=C(c1ccccc1)c1ccc2n1CCC2C(=O)O (stereo not given)
2. COc1ccc([C@@H]2Sc3ccccc3NC(=O)[C@@H]2O)cc1
3. OC[C@H]1O[C@@H](n2cnc3c(=S)nc[nH]c32)[C@H](O)[C@@H]1O
4. NCCNc1ccc(NCCN)c2c1C(=O)c1ccncc1C2=O
5. NNCCc1ccccc1
6. COC[C@@H](c1ccc(C(F)(F)F)cc1)N1CCN(C2(C)CCN(C(=O)c3c(C)ncnc3C)CC2)C[C@H]1C
7. C[C@H](CCC(=O)O)[C@H]1CC[C@H]2[C@H]3[C@@H](CC[C@]12C)[C@@]1(C)CC[C@@H](O)C[C@H]1C[C@@H]3O
8. CCCC(=O)Nc1ccc(O)c(C(C)=O)c1

1. 0.8
2. 2.8
3. 0.7
4. -0.4
5. -0.6
6. 2.8
7. 1
8. 3.1

Answer for every listed entry: what is its insulin secretion stimulation? The entries follow.
1. CCOC(=O)[C@@H](N)CS
2. COC(=O)/C=C(/C)N
3. Cc1cccc(Nc2ccncc2S(=O)(=O)NC(=O)NC(C)C)c1
4. Cc1cccc(C)c1NC(=O)c1cc(S(N)(=O)=O)c(Cl)cc1O
5. CS(=O)(=O)c1ccc(-c2cn3ccccc3n2)cc1

2.3
-0.8
5
-1.9
0.9

Each molecule below has a reported value. Please supply its insulin secretion stimulation.
1. Oc1ccccc1
2. CCOc1ccc(S(=O)(=O)O)c2cccnc12
3. Cc1nc2ccccn2c(=O)c1CCN1CCC(C(=O)c2ccc(F)cc2)CC1
4. CCOC(=O)c1cccnc1

[-0.2, 6, 3.35, -2.3]

Each molecule below has a reported value. Please supply its insulin secretion stimulation.
1. CON=C(C(=O)N[C@@H]1C(=O)N2C(C(=O)O)=C(C[N+]3(C)CCCC3)CS[C@H]12)c1csc(N)n1
2. OCc1ccc(Cl)cc1Cl
3. C=C(CC)C(=O)c1ccc(OCC(=O)O)c(Cl)c1Cl
4. CC(=O)Nc1ccc(OCCOCCOc2ccc(NC(C)=O)cc2)cc1
5. Cc1[nH]cnc1C[C@H]1CCc2c(C)c3ccccc3n2C1=O

3.1
-2
-2.5
-2.6
-0.4

Required: insulin secretion stimulation, one value per molecule below.
1. Cc1cccc(C)c1NC(=O)CN1CCCCCC1
2. Cc1nc2n(c(=O)c1CCN1CCC(C(=O)c3ccc(F)cc3)CC1)CCS2
3. NC12CC3CC(CC(C3)C1)C2

1. 1.9
2. 0.2
3. 2.4

Source: PubChem BioAssay
